# TESTED TARGET: T1, human membrane-bound IL-6R subunit alpha (human, UniProt P08887 20-468)
# T1 sequence: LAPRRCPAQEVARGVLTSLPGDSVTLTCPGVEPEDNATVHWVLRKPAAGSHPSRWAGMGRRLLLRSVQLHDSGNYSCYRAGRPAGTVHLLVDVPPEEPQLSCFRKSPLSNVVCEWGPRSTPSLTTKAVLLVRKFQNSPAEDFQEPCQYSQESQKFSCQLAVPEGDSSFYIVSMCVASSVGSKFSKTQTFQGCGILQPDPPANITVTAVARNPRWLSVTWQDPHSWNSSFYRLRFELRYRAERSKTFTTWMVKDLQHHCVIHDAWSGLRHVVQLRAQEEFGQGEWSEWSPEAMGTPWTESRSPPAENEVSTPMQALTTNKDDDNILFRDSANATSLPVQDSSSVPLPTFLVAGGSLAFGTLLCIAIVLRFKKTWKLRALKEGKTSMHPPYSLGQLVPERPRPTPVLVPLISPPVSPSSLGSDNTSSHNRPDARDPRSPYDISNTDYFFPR
# EXPERIMENT NOTES: cell-based or functional assay
READOUT KIND: Proliferation in % of Ba/F3_gp130_IL-6R cells (10 ng/ml IL-6 = 100%), IgG at 10 µg/ml
Just the number please, in %, no unit attached.

Below are worked cases with known answers.
1. anti-IL-6R IgG antibody 07 (C07 antibody, Fab chimerized with human IgG1) (antibody, V domains shown) VH: EVKLVESGGGLVQPGGSLKLSCAASGFTFSSYAMSWVRQTADKRLELVANINSNGGSTYYPDSVKGRFTISRDNAKNTLFLQMSSLKSEDTAMYYCAREGYYTMDYWGQGTSVTVSS VL: DIVLTQSPASLAVSPGQRATISCRASESVDSYGNSFMNWYQQKPGQPPKLLIYLASNLESGVPARFSGSGSRTDFTLTIDPVEADDAATYYCQQNNEDPYTFGGGTKLEIK :: 90.8
2. anti-IL-6R IgG antibody 09 (C09 antibody, Fab chimerized with human IgG1) (antibody, V domains shown) VH: EVQLVESGGDLVQPGGSLKLSCAASGFTFSNYGMSWVRQTPDKRLELVAAINSNGGSTYYPDSVKGRFTISRDNAKNTLYLQMSSLKSEDTAMYYCARDGNYVSDYWGQGTTLTVSS VL: DIVLTQSPASLAVSLGQRATISCRASESVDSYGNSFMHWYQQKPGQPPKLLIYLASNLESGVPARFSGSGSRTDFTLTIDPVEADDAATYYCQQNNEDPWTFGGGTKLEIK :: 94

Next:
Qu. Tell me the measured Proliferation in % of Ba/F3_gp130_IL-6R cells (10 ng/ml IL-6 = 100%), IgG at 10 µg/ml of anti-IL-6R IgG antibody 19 (C19 antibody, Fab chimerized with human IgG1) (antibody, V domains shown) VH: EVKLMESGGGLVQPGGSLKLSCAASGFTFSNYGMSWVRQTPDKRLELVAIMNSKGGSTYYPDSVMGRFTISRDNAKNTLYLQMSSLKSEDTAMYYCARDGYYTMDYWGQGTSVTVSS VL: DIVLTQSPASLAVSLGQRATISCRASKSVDSFGNSFMHWYQQKPGQSPRLLIFLASNLESGVPARFSGSGSRTDFTLTIDPVEADDAATYYCQQNNEDPYTFGGGTKLEIK , please.
Ans. 93.1

The values you see were collected from patent US20260226179A1.
